Hey, just so you know, these numbers are from PubChem BioAssay.

Tested on: Lefty1
Test: Lefty1 protein binding to printed compounds – biochemical, small-molecule microarray, 635/667 nm fluorescence, primary screen (AID 1139)
Conditions: fluorescence 635/667, higher = more signal
If the reported composite z-score equals or exceeds -0.5, assign true. If not, assign false.

Illustrative cases are given below, each with its answer.
compound	assigned category
c1ccc(-c2cc3c(nc2-c2ccccc2)CCNC3)cc1	true
C[C@@H]1OC=C2[C@@H](O)[C@H]3O[C@H]3C(=O)[C@]23[C@H]1[C@H]1C2=C([C@@H](O)[C@H]4O[C@H]4C2=O)[C@@H]3O[C@@H]1C	true
COC(=O)[C@H]1[C@H](c2ccccc2)C(=O)[C@]2(O)c3ccccc3O[C@@]12c1ccccc1	true
CCOC(=O)[C@H]1CC=C2C(=O)Oc3ccccc3[C@@H]21	false
C=C(CC1(CNP(=O)(c2ccccc2)c2ccccc2)CC1)c1ccccc1	false

composite z-score >= -0.5 for CCCC=C(CCC)[C@@H](NP(=O)(c1ccccc1)c1ccccc1)c1ccccc1 ?
true

Assess whether reported composite z-score for CCCc1cc2c(n1Cc1ccco1)C(C)C1CN(C(=O)c3ccccc3)C(C)(C(=O)OC)C21 (stereo not drawn) sits at -0.5 or higher.
true

API: above_or_equal(metric=composite z-score, cutoff=-0.5) for item CCCc1cc2c(n1Cc1ccc(C)cc1)C(C)C1CN(C(=O)c3ccccc3)C(C)(C(=O)OC)C21 (stereo not drawn)
false

For this compound, is measured composite z-score -0.5 or higher? CN1CCc2nc(CO)c(CO)cc2C1
true

Confirm if composite z-score reported for the compound COc1cc2c(cc1O)C=[N+](C)CC2 is -0.5 or above.
true

composite z-score >= -0.5 for C=C(CC1(C(C)NP(=O)(c2ccccc2)c2ccccc2)CC1)c1ccccc1 (stereo not drawn) ?
true

Quick check: does CN1CCC(c2ccc(CO)cc2)=CC1C1CC1 (stereo not drawn) have composite z-score greater than or equal to -0.5?
true

Answer whether composite z-score of CCOC(=O)[C@H]1CC=C2C(=O)Oc3ccc(Br)cc3[C@@H]21 is greater than or equal to -0.5.
false

Check if composite z-score >= -0.5 (inclusive). Item: O=P(c1ccccc1)(c1ccccc1)N1CC2(CC2)CC(O)(c2ccccc2)C1 (stereo not drawn)
false

Given CCCC[C@@H]1C[C@H]1[C@@H](NP(=O)(c1ccccc1)c1ccccc1)c1ccc(Cl)cc1 , state whether its composite z-score is at least -0.5.
false

Does the compound CCCc1cc2c(n1CCO)C(C)C1CN(C(=O)c3ccccc3)C(C)(C(=O)OC)C21 (stereo not drawn) have recorded composite z-score that is -0.5 or more?
false

Kindly determine if composite z-score recorded for COC(=O)[C@@]1(Cc2ccccc2)[C@H]2c3cc(C(=O)N(C)C)n(C)c3C[C@H]2CN1C(=O)c1ccccc1 is above or exactly -0.5.
false

Please check the record COC(=O)C1(C)C=C2C(=C(C)C(=O)C2C)CN1 (stereo not drawn) and state if its composite z-score is at or above -0.5.
false
